# Test system: Bacteroides stercoris
# METHOD: growth AUC relative to DMSO control (median of replicates) (fraction); higher = more growth (less inhibition), active = hit call of the paper;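 active = AUC reduced over 20% with Padj below 0.05 in at least 2 of 3 replicates; inactive = otherwise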
# CONDITION LABEL: 20 µM; 24 h
Could you please pick one outcome from this set? active, inactive

Lookup: GET /call?item= CON=C(Cc1cccnc1)c1ccc(Cl)cc1Cl returns the recorded outcome of this test.
Found: inactive

Lookup: GET /call?item= CC1CN(C2CCCCCCCCCCC2)CC(C)O1 (mixture of isomers) returns the recorded outcome of this test.
Found: inactive

Lookup: GET /call?item= c1ccc2c(c1)Cc1ccccc1-2 returns the recorded outcome of this test.
Found: inactive

Lookup: GET /call?item= CCNc1nc(NC(C)(C)C)nc(OC)n1 returns the recorded outcome of this test.
Found: inactive

Lookup: GET /call?item= COC(=O)C(C)Oc1ccc(Cl)cc1C (configuration not stated) returns the recorded outcome of this test.
Found: inactive

Lookup: GET /call?item= c1cc2ccc3ccc4ccc5cccc6c(c1)c2c3c4c56 returns the recorded outcome of this test.
Found: inactive

Lookup: GET /call?item= Clc1ccc(C(c2ccccc2Cl)C(Cl)Cl)cc1 (configuration not stated) returns the recorded outcome of this test.
Found: inactive

Lookup: GET /call?item= C#CC(C)N(C)C(=O)Nc1ccc(Cl)cc1 (configuration not stated) returns the recorded outcome of this test.
Found: inactive

The reported numbers originate from the supplement of paper PMC12669032.
